targetDesc: Class 1 phosphodiesterase PDEB1 (Trypanosoma brucei) (UniProt Q8WQX9)
Sequence (Q8WQX9 as listed by the source): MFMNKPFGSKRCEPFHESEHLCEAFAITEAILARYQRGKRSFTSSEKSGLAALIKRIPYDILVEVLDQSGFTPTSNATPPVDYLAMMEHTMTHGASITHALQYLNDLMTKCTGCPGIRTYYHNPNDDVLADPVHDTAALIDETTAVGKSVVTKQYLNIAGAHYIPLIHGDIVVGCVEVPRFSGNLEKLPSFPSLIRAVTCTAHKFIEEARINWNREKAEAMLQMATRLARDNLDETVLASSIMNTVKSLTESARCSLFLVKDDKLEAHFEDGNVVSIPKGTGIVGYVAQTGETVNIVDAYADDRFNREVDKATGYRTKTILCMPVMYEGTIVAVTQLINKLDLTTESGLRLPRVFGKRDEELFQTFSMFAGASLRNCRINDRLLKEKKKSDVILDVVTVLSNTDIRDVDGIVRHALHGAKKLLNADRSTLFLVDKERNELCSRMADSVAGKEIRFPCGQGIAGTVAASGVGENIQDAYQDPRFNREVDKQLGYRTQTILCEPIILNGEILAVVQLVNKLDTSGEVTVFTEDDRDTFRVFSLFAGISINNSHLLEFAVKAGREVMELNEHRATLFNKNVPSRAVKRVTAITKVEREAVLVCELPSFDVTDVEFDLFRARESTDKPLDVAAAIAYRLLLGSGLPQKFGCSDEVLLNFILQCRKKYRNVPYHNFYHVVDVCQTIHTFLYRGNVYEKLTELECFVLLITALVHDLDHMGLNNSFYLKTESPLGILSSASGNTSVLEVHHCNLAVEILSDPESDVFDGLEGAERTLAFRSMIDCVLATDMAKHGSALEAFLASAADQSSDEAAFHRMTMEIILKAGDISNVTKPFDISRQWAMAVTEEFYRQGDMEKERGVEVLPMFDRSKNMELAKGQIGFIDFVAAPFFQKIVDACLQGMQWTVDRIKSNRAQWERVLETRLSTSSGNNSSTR
assayNotes: Inhibition of Trypanosoma brucei PDEB1 at 100 uM
valueKind: inhibition (%)

- CCCc1nn(C)c2c(=O)[nH]c(-c3cc(S(=O)(=O)N4CCN(C)CC4)ccc3OCC)nc12: 51.5
- CCCc1nn(C)c2c(=O)[nH]c(-c3snnc3C)nc12: 16.3
- CCCc1nn(C)c2c(=O)[nH]c(-c3cscn3)nc12: 25.4
- CCCc1nn(C)c2c(=O)[nH]c(-c3cccnc3OC(C)C)nc12: 53.8
- CCCc1nn(C)c2c(=O)[nH]c(-c3cn(C)nc3C)nc12: 7.2
- CCCc1nn(C)c2c(=O)[nH]c(-c3cccnc3OCC)nc12: 41.5
- CCCc1nn(C)c2c(=O)[nH]c(-c3nnco3)nc12: 3.2
- CCOc1ccc(S(=O)(=O)N2CCN(C)CC2)cc1-c1nc2cnn(C)c2c(=O)[nH]1: 13.6
- CCCc1nn(C)c2c(=O)[nH]c(-c3cn(C)cn3)nc12: 5.3
- CCCc1nn(C)c2c(=O)[nH]c(-c3ccc(O)cc3)nc12: 24
- CCCc1nn(C)c2c(=O)[nH]c(-c3cccc(S(=O)(=O)N4CCN(C)CC4)c3)nc12: 8.4
- CCCc1nn(C)c2c(=O)[nH]c(-c3cccnc3O)nc12: 22.5
- CCCc1nn(C)c2c(=O)[nH]c(-c3oc(C)nc3C)nc12: 29
- CCOc1ccccc1-c1nc2c(-c3ccccc3)nn(CC(N)=O)c2c(=O)[nH]1: 7
- CCCc1nn(C)c2c(=O)[nH]c(-c3cnccn3)nc12: 6.5
- CCCc1nn(C)c2c(=O)[nH]c(-c3ccccc3OCC)nc12: 21.8
- CCCc1nn(C)c2c(=O)[nH]c(-c3cccnc3OC)nc12: 77.2
- CCCc1nn(C)c2c(=O)[nH]c(-c3cnc(C)cn3)nc12: 30
- CCCc1nn(C)c2c(=O)[nH]c(-c3ccoc3)nc12: 13.8
- CCCc1nn(C)c2c(=O)[nH]c(-c3ccc(=O)[nH]n3)nc12: 11.1
- CCOc1ccc(S(=O)(=O)N2CCN(C)CC2)cc1-c1nc2c(-c3ccccc3)nn(C)c2c(=O)[nH]1: 17.5
- CCCc1nn(-c2cccnc2)c2c(=O)[nH]c(-c3cc(S(=O)(=O)N4CCN(C)CC4)ccc3OCC)nc12: 32.4
- CCOc1ccc(S(=O)(=O)N2CCN(C)CC2)cc1-c1nc2c(-c3ccccc3)n[nH]c2c(=O)[nH]1: 70.9
- CCCc1n[nH]c2c(=O)[nH]c(-c3cc(S(=O)(=O)N4CCN(C)CC4)ccc3OCC)nc12: 16
- CCOc1ccccc1-c1nc2c(-c3ccccc3)n[nH]c2c(=O)[nH]1: 22.9
- CCCc1nn(C)c2c(=O)[nH]c(-c3ncccc3C)nc12: 72.1
- CCCc1nn(C)c2c(=O)[nH]c(-c3nccnc3N)nc12: 14.1
